# System: hTERT-BJ
# Assay Protocol: Cytotoxicity against hTERT-BJ cells at 12.50 uM after 48 hrs by resazurin dye-based fluorescence assay relative to control
# Format: cell-based
# Measurement Conditions: human, 12.5 µM
Measured Attribute: Activity (%)

In [3]: df
Out[3]:
                            molecular_string  experimental_result
 0   O=C(N/N=C/c1cccnc1)c1cc2cc(Br)ccc2oc1=O                 0.78
 1  O=C(N/N=C/c1cccnc1)c1cc2cc([N+](=O)[O-])ccc2oc1=O                 5.49
 2  CCOc1ccc2nc(Cl)c(/C=N/NC(=O)c3cc4ccc(O)cc4oc3=O)cc2c1                 1.47
 3  Cc1noc(NS(=O)(=O)c2ccc(NC(=O)c3cc4cc(Br)ccc4oc3=O)cc2)c1C                  1.2
 4  O=C(N/N=C/c1cc2ccccc2nc1Cl)c1cc2cc(Br)ccc2oc1=O                 3.63
 5  CCOc1ccc2nc(Cl)c(/C=N/NC(=O)c3cc4cc(Br)ccc4oc3=O)cc2c1                 1.77
 6       CCOc1ccc(NC(=O)c2cc3ccccc3oc2=O)cc1                  2.4
 7    CCOc1ccc(NC(=O)c2cc3ccc(O)cc3oc2=O)cc1                15.98
 8  CCOc1ccc(NC(=O)c2cc3cc([N+](=O)[O-])ccc3oc2=O)cc1                 1.66
 9    O=C(N/N=C/c1cccnc1)c1cc2ccc(O)cc2oc1=O                 1.26
10  CCOc1ccc2nc(Cl)c(/C=N/NC(=O)c3cc4cc([N+](=O)[O-])ccc4oc3=O)cc2c1                 1.38

====

# System: TERT-RPE1
# Assay Protocol: Cytotoxicity against hTERT-RPE1 cells at 50 uM after 48 hrs by resazurin dye-based fluorescence assay relative to control
# Format: cell-based
# Measurement Conditions: human, tert-rpe1, 48 h
Each record here notes measured Activity.
Measured Attribute: Activity (%)

In [3]: df
Out[3]:
                           molecular_string  measured_attribute  measurement_unit  experimental_result
0  CCOc1ccc2nc(Cl)c(/C=N/NC(=O)c3cc4cc(Br)ccc4oc3=O)cc2c1            Activity                 %                20.15
1  CCOc1ccc2nc(Cl)c(/C=N/NC(=O)c3cc4ccc(O)cc4oc3=O)cc2c1            Activity                 %                13.99
2   CCOc1ccc(NC(=O)c2cc3cc(Br)ccc3oc2=O)cc1            Activity                 %                16.45
3    O=C(N/N=C/c1cccnc1)c1cc2ccc(O)cc2oc1=O            Activity                 %                20.79
4  CCOc1ccc2nc(Cl)c(/C=N/NC(=O)c3cc4ccccc4oc3=O)cc2c1            Activity                 %                 9.97
5  Cc1noc(NS(=O)(=O)c2ccc(NC(=O)c3cc4cc([N+](=O)[O-])ccc4oc3=O)cc2)c1C            Activity                 %                 4.06
6   O=C(N/N=C/c1cccnc1)c1cc2cc(Br)ccc2oc1=O            Activity                 %                34.12
7       O=C(N/N=C/c1ccncc1)c1cc2ccccc2oc1=O            Activity                 %                13.73
8  O=C(N/N=C/c1cc2ccccc2nc1Cl)c1cc2cc(Br)ccc2oc1=O            Activity                 %                20.18
